Values compiled from PubChem BioAssay (NCI).

system: SK-OV-3 ovarian; experiment: NCI-60 one-dose screen, 48 h (100 = growth as untreated, 0 = no growth, -100 = all killed); details: 10 µM unless noted
This is part of a sample that, as a whole, favours compounds with a hit. Of some 83,000 tested, about 20% had one in any assay.
Attribute: growth
Write the answer as a number in %, unit excluded.

A selection of reference data follows.
> print(dat)
                                   molecule  measured.metric  value.measured
1  COC(C)(C)CCC[C@H](C)C/C=C/C(C)=C/C(=O)OC(C)C           growth              92
2  c1ccc([As]=[As]c2ccccc2)cc1 (stereo unspecified)           growth            27.5

Would you mind telling me what growth value was observed for `N#[N+]c1nc2nc(N)[nH]c(=O)c2[nH]1` ?
94.2

For the molecule shown here, CNC(C)Cc1ccccc1 (stereo unspecified) (tested in a mixture with another compound) , give the reported growth.
92.8

// growth lookup, key: `S=P(Nc1ccccc1)(Nc1ccccc1)c1ccccc1`
108

Which value of growth has been reported for `C[C@@H]1CC[C@@H]2[C@@H]1[C@H](OC(=O)/C=C/C1CCCCC1)[C@]1(C3CCCCC3)C[C@@H](OC(=O)CO)[C@@]2(C)O1` in the records?
69

----------
system: HL-60(TB) leukemia; assay: NCI-60 one-dose screen, 48 h (100 = growth as untreated, 0 = no growth, -100 = all killed); conditions: 10 µM unless noted
About 83,000 compounds went through this panel and 20% of them were active in at least one assay; those are over-represented in the sample as a whole. Calls of active or inactive are those of the source. Rule for the calls: active = growth percent below 10; inactive = the rest.
Measured Metric: growth

> print(dat)
                                   molecule  measured.metric    value.measured
1  CNc1nc2c(s1)C(c1cccc(F)c1)CC(=O)N2 (stereo unspecified)           growth  97.5% (inactive)

Would you kindly look at the next entry?
So what does the record say about growth for `COc1cc(OC)c(/C=C/S(=O)(=O)Cc2cnc(OC)c(N)c2)c(OC)c1` ?
-39.5% (active)

----------
growth reference
system: M14 melanoma; assay: NCI-60 one-dose screen, 48 h (100 = growth as untreated, 0 = no growth, -100 = all killed); details: 10 µM unless noted
This is part of a sample that, as a whole, favours compounds with a hit. Of some 83,000 tested, about 20% had one in any assay. Active and inactive are the calls of the source. The calls were made as follows: active = growth percent below 10; inactive = the rest.

These recorded examples may help you get a feel for the data.
Molecule	Target Under Test	Measured Metric	Value Measured
CC[C@@H](C)/C=C(C)/C=C/C(=O)c1c(O)c(-c2ccc(O)cc2)cn(O)c1=O	M14 melanoma	growth	-1.25% (active)
O=C(C(=O)N1CCCC1)c1cn(CCCCCn2cc(C(=O)C(=O)N3CCCC3)c3ccccc32)c2ccccc12	M14 melanoma	growth	95.9% (inactive)
CNC(=O)Oc1cccc(OC)c1	M14 melanoma	growth	107% (inactive)
O=C(NCCNC(=O)c1ccc([As](O)O)cc1)c1ccc([As](O)O)cc1	M14 melanoma	growth	99.1% (inactive)
CCCCCCCCCCOc1ccc(C(=O)Oc2ccc(CSP3(=O)OCC4OC(n5ccc(=O)[nH]c5=O)C(F)C4OP(=O)(O)OCC4OC(n5cnc6c(N)ncnc65)C(F)C4O3)cc2)cc1 (stereo not given)	M14 melanoma	growth	90.7% (inactive)
Clc1ccc(SSC(Cl)(Cl)Cl)cc1	M14 melanoma	growth	107% (inactive)

Which growth is reported with M14 melanoma for this entry: `CC(=O)O[C@@H]1C2=C(C)C3(CC3)[C@@](C)(O)C(=O)C2=C[C@@]1(C)CO` ?
-48.6% (active)

Give recorded growth with M14 melanoma for the following molecule: `CC(C)OC(=S)[S-].[Au+].c1ccc([PH+](c2ccccc2)c2ccccc2)cc1`
11.5% (inactive)

So what growth did `CNC(=O)Oc1cccc(N(C)C)c1` get with M14 melanoma?
107% (inactive)

Requested read-out growth, target or system M14 melanoma, entry CC1COC(=O)C1 (stereo not given)
102% (inactive)
